# assayTarget: TRKA (Homo sapiens, UniProt P04629)
# Sequence (P04629 33-796): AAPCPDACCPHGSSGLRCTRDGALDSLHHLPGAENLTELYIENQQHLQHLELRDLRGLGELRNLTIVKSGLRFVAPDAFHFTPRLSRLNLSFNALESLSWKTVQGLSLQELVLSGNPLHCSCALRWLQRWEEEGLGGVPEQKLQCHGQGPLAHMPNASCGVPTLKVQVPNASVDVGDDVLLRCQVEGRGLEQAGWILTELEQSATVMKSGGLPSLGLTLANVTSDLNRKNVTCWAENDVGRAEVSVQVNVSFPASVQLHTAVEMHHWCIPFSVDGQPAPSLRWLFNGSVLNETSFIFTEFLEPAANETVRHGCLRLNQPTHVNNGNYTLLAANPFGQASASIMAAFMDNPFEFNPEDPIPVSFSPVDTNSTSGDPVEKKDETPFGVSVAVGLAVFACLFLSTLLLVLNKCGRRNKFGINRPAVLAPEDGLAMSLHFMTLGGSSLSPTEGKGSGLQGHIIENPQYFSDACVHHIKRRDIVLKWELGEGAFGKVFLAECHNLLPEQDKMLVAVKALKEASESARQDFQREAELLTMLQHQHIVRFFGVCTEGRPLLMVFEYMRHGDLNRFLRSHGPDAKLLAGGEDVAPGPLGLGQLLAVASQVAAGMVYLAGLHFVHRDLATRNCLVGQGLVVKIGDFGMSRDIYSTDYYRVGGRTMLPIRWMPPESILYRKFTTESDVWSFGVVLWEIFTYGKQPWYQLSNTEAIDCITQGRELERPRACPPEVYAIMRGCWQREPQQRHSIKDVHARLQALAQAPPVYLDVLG
resultType: IC50
Field note: include the unit after the figure.

Query block: GET /values?readout=IC50&item= `COc1cc(CCc2cc(NC(=O)c3ccc(N4C[C@@H](C)N[C@@H](C)C4)cc3)n[nH]2)cc(OC)c1`
Result block: 8.8 nM

====

# assayTarget: TRKC (Homo sapiens, UniProt Q16288)
# Sequence (Q16288 32-839): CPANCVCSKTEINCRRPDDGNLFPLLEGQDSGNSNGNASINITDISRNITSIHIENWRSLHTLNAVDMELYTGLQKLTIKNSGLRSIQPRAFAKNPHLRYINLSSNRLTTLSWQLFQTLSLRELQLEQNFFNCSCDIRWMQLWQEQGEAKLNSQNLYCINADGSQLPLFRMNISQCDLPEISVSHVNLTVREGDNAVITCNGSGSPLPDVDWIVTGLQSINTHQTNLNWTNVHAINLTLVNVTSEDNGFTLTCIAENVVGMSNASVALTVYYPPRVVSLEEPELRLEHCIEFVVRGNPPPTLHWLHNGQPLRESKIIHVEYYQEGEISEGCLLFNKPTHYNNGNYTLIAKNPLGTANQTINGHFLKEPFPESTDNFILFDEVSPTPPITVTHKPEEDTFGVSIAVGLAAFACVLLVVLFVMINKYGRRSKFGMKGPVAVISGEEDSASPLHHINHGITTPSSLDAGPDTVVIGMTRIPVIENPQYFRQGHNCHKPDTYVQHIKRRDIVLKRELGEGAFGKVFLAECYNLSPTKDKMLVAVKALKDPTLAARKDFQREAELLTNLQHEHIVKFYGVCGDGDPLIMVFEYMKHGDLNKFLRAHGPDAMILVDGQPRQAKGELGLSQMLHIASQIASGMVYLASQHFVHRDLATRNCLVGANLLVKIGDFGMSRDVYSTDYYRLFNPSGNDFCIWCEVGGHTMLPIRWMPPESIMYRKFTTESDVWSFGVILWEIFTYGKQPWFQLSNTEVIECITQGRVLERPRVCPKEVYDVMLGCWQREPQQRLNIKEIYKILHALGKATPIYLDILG
resultType: IC50 (nM)
Lab book: enter the figure in nM, no units written.

Query block: GET /values?readout=IC50&item= COc1cc(CCc2cc(NC(=O)c3ccc(N4C[C@@H](C)N[C@@H](C)C4)cc3)n[nH]2)cc(OC)c1 [AZD4547]
Result block: 1

====

# protocolNotes: in vitro
# Design: CellTiter-Glo viability of parental Ba/F3 cells, counter-screen
# particulars: mouse, parental ba/f3 cells
resultType: CC50 at 72 h

Query block: GET /values?readout=CC50 at 72 h&item= `C[C@@H]1CCc2ncc(F)cc2[C@H]2CCCN2c2ccn3ncc(c3n2)C(=O)N1`
Result block: > 2000 nM

====

# protocolNotes: in vitro
# Set-up: CellTiter-Glo viability of parental Ba/F3 cells, counter-screen
# particulars: mouse, parental ba/f3 cells; read-out: AZD4547 parental
resultType: CC50 at 72 h

Query block: GET /values?readout=CC50 at 72 h&item= `COc1cc(CCc2cc(NC(=O)c3ccc(N4C[C@@H](C)N[C@@H](C)C4)cc3)n[nH]2)cc(OC)c1`
Result block: > 2000 nM
